Tested on: synthetic oligopeptides
Assay type: biochemical
Settings: substrate MADYLT (SEQ ID NO:8), 4 mM oligopeptide, pH 7.5, 37° C.
Label label 1 when Specific activity (unit/mg) is at or above 100 unit/mg; anything below gets label 0.

{"columns": ["molecule", "class-name"],
 "data": [
  ["MetAP-*GG (protein) AISIKTPEDIEKMRVAGRLAAEVLEMIEPYVKPGVSTGELDRICNDYIVNEQHAVSACLGYHGYPKSVCISINEVVCHGIPDDAKLLKDGDIVNIDVTVIKDGFHGDTSKMFIVGKPTIMGERLCRITQESLYLALRMVKPGINLREIGAAIQKFVEAEGFSVVREYCGHGIGRGFHEEPQVLHYDSRETNVVLKPGMTFTIEPGVNAGKKEIRTMKDGWTVKTKDRSLSAGYEHTIVVTDNGCEILTLRKDDTIPAIISHDE", "label 0"],
  ["MetAP-*TG (protein) AISIKTPEDIEKMRVAGRLAAEVLEMIEPYVKPGVSTGELDRICNDYIVNEQHAVSACLGYHGYPKSVCISINEVVCHGIPDDAKLLKDGDIVNIDVTVIKDGFHGDTSKMFIVGKPTIMGERLCRITQESLYLALRMVKPGINLREIGAAIQKFVEAEGFSVVREYCGHGIGRGFHEEPQVLHYDSRETNVVLKPGMTFTIEPTVNAGKKEIRTMKDGWTVKTKDRSLSAGYEHTIVVTDNGCEILTLRKDDTIPAIISHDE", "label 1"],
  ["MetAP-GTG (protein) AISIKTPEDIEKMRVAGRLAAEVLEMIEPYVKPGVSTGELDRICNDYIVNEQHAVSACLGYHGYPKSVCISINEVVCHGIPDDAKLLKDGDIVNIDVTVIKDGFHGDTSKMFIVGKPTIMGERLCRITQESLYLALRMVKPGINLREIGAAIQKFVEAEGFSVVREGCGHGIGRGFHEEPQVLHYDSRETNVVLKPGMTFTIEPTVNAGKKEIRTMKDGWTVKTKDRSLSAGYEHTIVVTDNGCEILTLRKDDTIPAIISHDE", "label 0"],
  ["MetAP-YMQ: wild type E. coli Met aminopeptidase (SEQ ID NO:1) (protein, listed as Escherichia coli) MAISIKTPEDIEKMRVAGRLAAEVLEMIEPYVKPGVSTGELDRICNDYIVNEQHAVSACLGYHGYPKSVCISINEVVCHGIPDDAKLLKDGDIVNIDVTVIKDGFHGDTSKMFIVGKPTIMGERLCRITQESLYLALRMVKPGINLREIGAAIQKFVEAEGFSVVREYCGHGIGRGFHEEPQVLHYDSRETNVVLKPGMTFTIEPMVNAGKKEIRTMKDGWTVKTKDRSLSAQYEHTIVVTDNGCEILTLRKDDTIPAIISHDE", "label 1"],
  ["MetAP-*TT (protein) AISIKTPEDIEKMRVAGRLAAEVLEMIEPYVKPGVSTGELDRICNDYIVNEQHAVSACLGYHGYPKSVCISINEVVCHGIPDDAKLLKDGDIVNIDVTVIKDGFHGDTSKMFIVGKPTIMGERLCRITQESLYLALRMVKPGINLREIGAAIQKFVEAEGFSVVREYCGHGIGRGFHEEPQVLHYDSRETNVVLKPGMTFTIEPTVNAGKKEIRTMKDGWTVKTKDRSLSATYEHTIVVTDNGCEILTLRKDDTIPAIISHDE", "label 0"]
]}
